activity change, negative = cytotoxicity values by entry
Measurement Description: Caspase-3/7 induction in CHO-K1 cells by small molecules, qHTS cell viability counter screen (AID 1346979); also: % is scaled to controls: 0 for no effect and ±100 for the full control effect; nearly all actives have a fitted effect of over 35% in size
Experimental Context: CellTiter-Fluor fluorescence, 17 h; series mostly up to 92.4 µM
Results filed as inconclusive are left out. Active and inactive are the calls of the source. Calls follow the shape of the dose curve; as a rule, active = well fitted cell-killing curve with a large enough effect in the repeat runs; inconclusive = weak or mixed curves, or effect the other way; inactive = no such curve, though single readings can be large or run the other way.
Assay Readout: activity change, negative = cytotoxicity

>>> result("O=C(CCN1CCN2CCCC2C1)N1c2ccccc2Sc2ccc(Cl)cc21 (centres undefined)")
"-16.9% [at 19 µM] (inactive)"
>>> result("CCCCCCCCCCCCCCCCCBr")
"6.07% [at 19 µM] (inactive)"
>>> result("CCN(CCO)CCCC(C)Nc1ccnc2cc(Cl)ccc12 (centres undefined)")
"0.797% [at 8.39 µM] (inactive)"
>>> result("O=C(C(=O)c1ccc(Br)cc1)c1ccc(Br)cc1")
"1.57% [at 19 µM] (inactive)"

###

Measurement Description: qHTS assay for small molecule activators of the heat shock response signaling pathway - cell viability counter screen (AID 743209); also: nearly all actives have a fitted effect of over 50% in size
Experimental Context: HSE-bla HeLa viability, CellTiter-Glo luminescence, 5 h; series mostly up to 62.6 µM
Inconclusive results are not listed. Calls of active or inactive are those of the source. Calls come from the whole dose curve; as a rule, active = well fitted cell-killing curve with a large enough effect in the repeat runs; inconclusive = weak or mixed curves, or effect the other way; inactive = no such curve, though single readings can be large or run the other way.
Labels: active, inactive

>>> assigned_label("Nc1cnn([C@@H]2O[C@H](CO)[C@@H](O)[C@H]2O)c(=O)n1")
"inactive"
>>> assigned_label("CC(C)(C)c1ccc(S)cc1")
"inactive"
>>> assigned_label("COc1ccc([C@@H]2Sc3ccccc3N(CCN(C)C)C(=O)[C@@H]2OC(C)=O)cc1")
"inactive"
>>> assigned_label("COCCCCCCCCOCCC[Si](C)(O[Si](C)(C)C)O[Si](C)(C)C")
"active"
>>> assigned_label("Nc1nc(N)c(-c2ccccc2)s1")
"inactive"
>>> assigned_label("Oc1ccc(O)c2c(O)cccc12")
"inactive"

###

Measurement Description: qHTS assay to identify small molecule agonists of the progesterone receptor (PR) signaling pathway - cell viability counter screen (AID 1346799); also: nearly all actives have a fitted effect of over 45% in size
Experimental Context: PR-UAS-bla HEK293T viability, CellTiter-Glo luminescence, 16 h; series mostly up to 92.4 µM
Description: National Center for Advancing Translational Sciences [NCATS] NIH Chemical Genomics Center [NCGC] U.S. Environmental Protection Agency [EPA] National Institutes of Environmental Health Sciences [NIEHS] National Toxicology Program [NTP] U.S. Food and Drug Administration [FDA] Progesterone receptor (PR), a nuclear hormone receptor, plays an important role in development, metabolic homeostasis and reproduction. It is activated by the steroid hormone progesterone. […]
Records with an inconclusive call do not appear. Active and inactive are the calls of the source. Calls come from the whole dose curve.
Outcome codes: T = active, F = inactive

>>> assigned_label("Cn1c(N)nc2nc[nH]c2c1=O")
"F"
>>> assigned_label("c1ccc(-c2nc[nH]c2-c2ccccc2)cc1")
"F"
>>> assigned_label("CCOc1cc(OCC)c(C(=O)CCC(=O)O)cc1OCC")
"F"
>>> assigned_label("C[C@@H](C1=C(CCN(C)C)Cc2ccccc21)c1ccccn1")
"F"
>>> assigned_label("N#Cc1c(F)cccc1F")
"F"
>>> assigned_label("CCN(CC)C(C)=O")
"F"
>>> assigned_label("CC(C)c1ccccc1C(C)C")
"F"
>>> assigned_label("CC1=CC(=O)/C(=C(/C)O)C(=O)O1")
"F"
>>> assigned_label("Cc1ccc(C)o1")
"F"
>>> assigned_label("C[C@H](CCC(=O)O)[C@H]1CC[C@H]2[C@@H]3[C@H](O)C[C@@H]4C[C@H](O)CC[C@]4(C)[C@H]3CC[C@]12C")
"F"
>>> assigned_label("C=Cc1c(C)c2cc3[nH]c(cc4nc(cc5nc(cc1[nH]2)C(C)=C5CCC(=O)O)C(CCC(=O)O)=C4C)c(C)c3C=C")
"F"
>>> assigned_label("O=CNc1ccccc1")
"F"
>>> assigned_label("NCCCOCCOCCOCCCN")
"T"

###

Measurement Description: A CellTox Green Cytotoxicity Assay to monitor cytotoxicity in HepG2 cells - 40 hour (AID 1224879); also: nearly all actives have a fitted effect of over 40% in size; also: potency is read from the fitted curve at half-maximal effect
Experimental Context: CellTox Green fluorescence; series mostly up to 76.8 µM
Inconclusive results are not listed. Active and inactive are the calls of the source. The call rests on the fitted dose curve; in most records, active means well fitted activation curve with a large enough effect in the repeat runs; inconclusive means weak or mixed curves; inactive means flat fitted curve, though single readings scatter.
Assay Readout: Potency

>>> result("FC(F)(F)C(F)(F)C(F)(F)C(F)(F)C(F)(F)C(F)(F)CCI")
"inactive"
>>> result("CC1=CCC(C(C)C)C=C1 (stereo not drawn)")
"inactive"
>>> result("CC(C)CCCC(C)CCO (stereo not drawn)")
"inactive"
>>> result("O=C(NS(=O)(=O)/C=C/c1cccs1)c1ccc(F)cc1Br")
"inactive"
>>> result("CC(C)NCC(O)COc1ccc(CC(N)=O)cc1 (stereo not drawn)")
"inactive"
>>> result("CC(C)c1ccccc1C(C)C")
"inactive"
>>> result("CCN(CC)CCOc1ccc2c(c1)C(=O)c1cc(OCCN(CC)CC)ccc1-2")
"26.8 µM (active)"
>>> result("CCCCOCCOCCOCCOCCO")
"inactive"
>>> result("COc1ccccc1OC(=O)Oc1ccccc1OC")
"inactive"
>>> result("CCN(CC)CCNC(C(=O)OCCC(C)C)c1ccccc1 (stereo not drawn)")
"inactive"
>>> result("CCOC(=S)SSC(=S)OCC")
"inactive"
>>> result("CCCCC(CC)COCCCN (stereo not drawn)")
"inactive"
>>> result("COc1ccc([C@@H]2Sc3ccccc3N(CCN(C)C)C(=O)[C@@H]2OC(C)=O)cc1")
"inactive"

###

Measurement Description: A CellTox Green Cytotoxicity Assay to monitor cytotoxicity in HEK293 cells - 8 hour (AID 1224884); also: % is scaled to controls: 0 for no effect and ±100 for the full control effect; nearly all actives have a fitted effect of over 35% in size
Experimental Context: CellTox Green fluorescence; series mostly up to 76.8 µM
Results filed as inconclusive are left out. The source made the active and inactive calls. Calls follow the shape of the dose curve; as a rule, active = well fitted activation curve with a large enough effect in the repeat runs; inconclusive = weak or mixed curves; inactive = flat fitted curve, though single readings scatter.
Assay Readout: cytotoxicity increase

>>> result("Cc1ccc(O)c([C@H](CCN(C(C)C)C(C)C)c2ccccc2)c1")
"inactive"
>>> result("CC(C)NCC(O)c1cc(O)cc(O)c1 (configuration not stated)")
"inactive"
>>> result("CCOc1cc(OCC)c(C(=O)CCC(=O)O)cc1OCC")
"inactive"
>>> result("C1CCC2OC2C1 (configuration not stated)")
"inactive"
>>> result("NC[C@H]1O[C@H](O[C@H]2[C@H](O)[C@@H](O[C@H]3O[C@H](CO)[C@@H](O)[C@H](N)[C@H]3O)[C@H](N)C[C@@H]2N)[C@H](O)[C@@H](O)[C@@H]1O")
"7.24% [at 6.97 µM] (inactive)"
>>> result("C=C(C)C(=O)OCCOc1ccccc1")
"inactive"
>>> result("CCCCCCc1ccc(N)cc1")
"inactive"
>>> result("CN(C)CC[C@@H](c1ccc(Br)cc1)c1ccccn1")
"inactive"
>>> result("C=CC(=O)OCCOC(=O)CCC(=O)O")
"inactive"
>>> result("CCCCCCCCCCCCCCCCCBr")
"-3.41% [at 15.8 µM] (inactive)"
>>> result("FC(F)(F)C(F)(F)C(F)(F)C(F)(F)C(F)(F)C(F)(F)CCI")
"inactive"
>>> result("CCCCCCCCCC=O")
"inactive"

###

Measurement Description: qHTS assay to identify small molecule antagonists of the peroxisome proliferator-activated receptor gamma (PPARg) signaling pathway - cell viability counter screen (AID 743194); also: % is scaled to controls: 0 for no effect and ±100 for the full control effect; nearly all actives have a fitted effect of over 55% in size
Experimental Context: PPARg-bla HEK293H viability, CellTiter-Glo luminescence, 17 h, co-treated with 50 nM rosiglitazone; series mostly up to 62.6 µM
Inconclusive results are not listed. Active and inactive are the calls of the source. Calls follow the shape of the dose curve; as a rule, active = well fitted cell-killing curve with a large enough effect in the repeat runs; inconclusive = weak or mixed curves, or effect the other way; inactive = no such curve, though single readings can be large or run the other way.
Assay Readout: activity change, negative = cytotoxicity

>>> result("N#CCc1cccc(C(F)(F)F)c1")
"inactive"
>>> result("Cc1cc(C)c(S(=O)(=O)O)cc1N=Nc1cc(S(=O)(=O)O)c2ccccc2c1O")
"inactive"
>>> result("CCCCOc1ccc(CC(=O)NO)cc1")
"inactive"
>>> result("CC(C)=CCCC(C)CC=O (centres undefined)")
"inactive"
>>> result("C=C(C)C(=O)OCCOc1ccccc1")
"inactive"
>>> result("CC1(C)[C@H]2CC[C@]1(C)[C@H](O)C2")
"inactive"
>>> result("C=CC(=O)OCCOC(=O)CCC(=O)O")
"inactive"
>>> result("CCCc1ccccc1")
"inactive"
>>> result("CC/C(=C\\C(=N/O)C(N)=O)C(C)[N+](=O)[O-] (centres undefined)")
"inactive"
>>> result("CCOC(=S)SSC(=S)OCC")
"inactive"
>>> result("Cc1cc(CC(=O)O)c(C)n1-c1ccc(Cl)cc1")
"inactive"
>>> result("CCCC(C)C")
"inactive"
>>> result("CC1(C)CCC(C)(C)c2cc(NC(=O)c3ccc(C(=O)O)cc3)ccc21")
"inactive"
>>> result("c1ccc(CNCc2ccccc2)cc1")
"inactive"

###

Measurement Description: qHTS RealTime-Glo MT Cell Viability Assay in HEK293 cells - 40 hour (AID 1224874); also: % is scaled to controls: 0 for no effect and ±100 for the full control effect; nearly all actives have a fitted effect of over 50% in size
Experimental Context: RealTime-Glo luminescence; stronger effect = lower value
From the text: U.S. Tox21 Program National Center for Advancing Translational Sciences [NCATS] NIH Chemical Genomics Center [NCGC] U.S. Environmental Protection Agency [EPA] National Institutes of Environmental Health Sciences [NIEHS] National Toxicology Program [NTP] U.S. Food and Drug Administration [FDA] Tox21 Assay Overview: Measure of cell viability is critical in the cell-base assay. Analysis of cell viability is necessary for the characterization of cell responses to cytotoxic drugs and environmental stress. […]
Inconclusive results are not listed.
Listed here: items and their measured max response.
Assay Readout: max response (%)

>>> result("ClC(Cl)(Cl)c1ccc(C(Cl)(Cl)Cl)cc1")
-9.34
>>> result("CCCCOCCOCCOCCOCCO")
-11.7
>>> result("CC(=O)O[C@@H]1C(=O)O[C@@H]2[C@H]1OC(=O)[C@@H]2OC(C)=O")
-24.6
>>> result("O=C(O)C1CCC(C(=O)O)CC1 (centres undefined)")
-2.66
>>> result("CCCCCC(CO)CCC (centres undefined)")
1.02
>>> result("CC(C)(Oc1ccc(Cl)cc1)C(=O)OCCCOC(=O)C(C)(C)Oc1ccc(Cl)cc1")
-17.7
>>> result("COCCO")
11.8
>>> result("COc1cc(C(C)(C)C)c(O)c(C(C)(C)C)c1")
1.44
>>> result("O=C1CCCCCO1")
10.5
>>> result("Nc1cnn([C@@H]2O[C@H](CO)[C@@H](O)[C@H]2O)c(=O)n1")
-6.05
>>> result("CC(C)=CCCC(C)CC=O (centres undefined)")
-1.27
>>> result("CC1(C)[C@H]2CC[C@]1(C)[C@H](O)C2")
-5.57
>>> result("COc1ccc(C(C)=O)cc1")
21.1
>>> result("NC1CCN(c2nc3c(cc2F)c(=O)c(C(=O)O)cn3-c2ccc(F)cc2F)C1 (centres undefined)")
-1.98
>>> result("CC(=O)Nc1ccc(/C=N/NC(N)=S)cc1")
0.836
>>> result("CN(C)CC/C=C1\\c2ccccc2COc2ccccc21")
3.53
>>> result("O=C(O)Cn1c(C(=O)Nc2nc(-c3ccccc3Cl)cs2)cc2ccccc21")
-2.19
>>> result("O=c1[nH]cnc2ccccc12")
-7.9
>>> result("CC(=O)c1c(C)c([N+](=O)[O-])c(C(C)(C)C)c([N+](=O)[O-])c1C")
-9.27
>>> result("O=C1c2cccc(O)c2C(=O)c2c(O)cc(CO)cc21")
29.8
>>> result("CC(=O)SCc1ccco1")
13.4
>>> result("CC/C(=C\\C(=N/O)C(N)=O)C(C)[N+](=O)[O-] (centres undefined)")
22.3
>>> result("FC(F)(F)C(F)(F)C(F)(F)C(F)(F)C(F)(F)C(F)(F)CCI")
-0.265
>>> result("CC(C(=O)O)c1ccc(-c2ccccc2)c(F)c1 (centres undefined)")
-0.192
>>> result("CCOC(=O)CC(C)C")
6.18
>>> result("CCOc1ccc2[nH]cc(C(=O)NCc3ccccc3)c(=O)c2n1")
-23.2
>>> result("O=C(C(=O)c1ccc(Br)cc1)c1ccc(Br)cc1")
0.201
>>> result("CCCCOC(=O)/C=C\\C(=O)OCCCC")
-0.0674
>>> result("Cc1cc(CC(=O)O)c(C)n1-c1ccc(Cl)cc1")
-0.616
>>> result("CC(C)CC=O")
6.71
>>> result("NC(N)=N/N=C/c1c(Cl)cccc1Cl")
-22.8
>>> result("CN1CCC[C@@H]1c1cccnc1")
7.25
>>> result("CCCCCCCCCCCCCCCCCBr")
3.16
>>> result("O=C1Nc2cc(Cl)ccc2Oc2ccccc21")
5.17
>>> result("C1=Cc2ccccc2C1")
6.96
>>> result("CC(=O)OCCc1ccccc1")
10.1
>>> result("CC(C)(C)C1CCCCC1O (centres undefined)")
0.612
>>> result("O=C(NN1CCCC1)NS(=O)(=O)c1ccc(Cl)cc1")
15.3
>>> result("SC1CCCC1")
8.94
>>> result("Cc1ccc(C(C)c2ccc(C)c(C)c2)cc1C")
-0.95
>>> result("CCCCCCCCC(CO)CCCCCC (centres undefined)")
1.58
>>> result("OCC1CC2CC1C1CCC(CO)C21 (centres undefined)")
-17.3
>>> result("CN(C)CCCNCCCN")
24.4
>>> result("C=C(C)C(=O)OC(C)C")
6
>>> result("O=C(O)Cc1sc(-c2ccccc2)nc1-c1ccc(Cl)cc1")
0.938
>>> result("CCCC(=O)OCC")
20
>>> result("CCC(=O)OC(C)(C)C1CC=C(C)CC1 (centres undefined)")
-0.19
>>> result("C=CC(=O)OCCOC(=O)CCC(=O)O")
19.5
>>> result("O=C(O)/C=C/c1cnc[nH]1")
-5.16
>>> result("O=C(Cl)c1c(Cl)cccc1Cl")
-14.9
>>> result("Cc1occc1S")
3.01
>>> result("CC(C)CCCC(C)CCO (centres undefined)")
14.4
>>> result("C=Cc1c(C)c2cc3[nH]c(cc4nc(cc5nc(cc1[nH]2)C(C)=C5CCC(=O)O)C(CCC(=O)O)=C4C)c(C)c3C=C")
-11.2
>>> result("CC(C)(C)c1ccc(S)cc1")
-0.358
>>> result("NCCCOCCOCCOCCCN")
-18
>>> result("Cc1cccc(OCCOc2cccc(C)c2)c1")
-15.5
>>> result("O=C(CC(=O)c1ccccc1)c1ccccc1")
-4.39
>>> result("COc1ccc(OC)c(OC)c1")
15.8
>>> result("CCCCCCCCN(C)C")
16
